Source of measurements: patent US7601753B2

- experimental.system: MC1-R (B-16 mouse melanoma cells) (Mus musculus)
- Construct: membranes prepared from hMC3-R, hMC4-R, hMC5-R, and B-16 mouse melanoma cells (containing MC1-R); endogenous in cells; host or cells: B-16 mouse melanoma cells (membranes)
- Sequence (Q01727 whole entry): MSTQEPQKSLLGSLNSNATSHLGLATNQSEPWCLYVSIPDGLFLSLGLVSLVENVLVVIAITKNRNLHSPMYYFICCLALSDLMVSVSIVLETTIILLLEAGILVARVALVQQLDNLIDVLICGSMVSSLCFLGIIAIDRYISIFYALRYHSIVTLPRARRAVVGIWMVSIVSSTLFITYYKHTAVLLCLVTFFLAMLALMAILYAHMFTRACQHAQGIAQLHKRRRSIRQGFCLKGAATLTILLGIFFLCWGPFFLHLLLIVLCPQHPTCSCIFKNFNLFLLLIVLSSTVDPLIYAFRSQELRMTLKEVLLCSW
- test.summary: Competitive inhibition binding assay, 125I-NDP-α-MSH, MC1-R
- details: 1 μM test compound; 0.4 nM 125I-NDP-α-MSH; B-16 mouse melanoma cell membranes; mean of triplicates; results less than 0% reported as 0%
Non-standard residues stand in square brackets, D forms with d. Residues, ends and D or L forms follow the SMILES beside them. *: point of attachment. Hyp = O=C(O)[C@@H]1C[C@@H](O)CN1; Nle = CCCC[C@H](N)C(=O)O; NH(CH2)3NH2 = NCCCN*; Bn = c1ccc(C*)cc1
measurement.kind: inhibition at 1 µM (%)

Worked set:
CCCC[C@H](N)C(=O)N[C@@H](C)C(=O)N[C@@H](Cc1cnc[nH]1)C(=O)N[C@H](Cc1ccccc1)C(=O)N1C[C@H](OCc2ccccc2)C[C@H]1C(=O)NCCCN [Example 10] (H-[Nle]AH[dF][Hyp](Bn)-{NH(CH2)3NH2}) : 83
NCCCNC(=O)[C@@H]1C[C@@H](OCc2ccccc2)CN1C(=O)[C@@H](Cc1ccc(Cl)cc1)NC(=O)[C@@H]1Cc2ccccc2CN1 : 40

A. CCCC[C@H](NC(C)=O)C(=O)N[C@@H](C)C(=O)N[C@@H](Cc1cnc[nH]1)C(=O)N[C@H](Cc1ccccc1)C(=O)N1C[C@H](OCc2ccccc2)C[C@H]1C(=O)NCCCN [Example 9] (Ac-[Nle]AH[dF][Hyp](Bn)-{NH(CH2)3NH2})
B. [2H]N[C@@H](Cc1cnc[nH]1)C(=O)N[C@@H](Cc1ccccc1)C(=O)N1C[C@H](OCc2ccccc2)C[C@H]1C(=O)NCCCCCN
C. [2H]N1CCC[C@@H]1C(=O)N[C@@H](Cc1ccccc1)C(=O)N1C[C@H](OCc2ccccc2)C[C@H]1C(=O)NCCCN
Please list these molecules in decreasing order of inhibition at 1 µM. # answer = labels listed in requested order
A, B, C

A. NCCCNC(=O)[C@@H]1C[C@@H](OCc2ccccc2)CN1C(=O)[C@@H](Cc1ccccc1)NC(=O)[C@@H]1Cc2ccccc2CN1
B. NCCCNC(=O)[C@@H]1C[C@@H](OCc2ccccc2)CN1C(=O)[C@@H](Cc1ccccc1)NC(=O)[C@H]1Cc2ccccc2CN1
Given A and B , report the one with the higher recorded inhibition at 1 µM. Your choice should be expressed through its label.
A
(A: 34%, B: 17%)

A. [2H]N[C@@H](Cc1cnc[nH]1)C(=O)N[C@@H](Cc1ccccc1)C(=O)N1C[C@H](OCc2ccccc2)C[C@H]1C(=O)NCCCN
B. [2H]N[C@@H](Cc1cnc[nH]1)C(=O)N[C@@H](Cc1ccccc1)C(=O)N1C[C@H](OCc2ccccc2)C[C@H]1C(=O)NCCCNC(=N)N
// compare measured inhibition at 1 µM between A and B ; output the lower one Your choice should be expressed through its label.
B
(B: 0%, A: 48%)

----------
- experimental.system: hMC3-R (Homo sapiens, UniProt P41968)
- Construct: expressed in transfected cells
- Sequence (P41968 whole entry): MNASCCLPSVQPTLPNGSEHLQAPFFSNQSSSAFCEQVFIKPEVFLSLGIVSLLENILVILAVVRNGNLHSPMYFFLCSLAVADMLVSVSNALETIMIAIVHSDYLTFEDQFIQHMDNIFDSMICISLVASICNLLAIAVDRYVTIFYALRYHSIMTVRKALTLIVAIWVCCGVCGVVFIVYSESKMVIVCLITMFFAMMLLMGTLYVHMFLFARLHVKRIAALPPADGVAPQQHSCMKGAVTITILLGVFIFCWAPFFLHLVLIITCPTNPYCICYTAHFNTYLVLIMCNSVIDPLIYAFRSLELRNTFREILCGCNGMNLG
- test.summary: Competitive inhibition binding assay, 125I-NDP-α-MSH, hMC3-R
- details: 1 μM test compound; 0.4 nM 125I-NDP-α-MSH; hMC3-R membranes; mean of triplicates; results less than 0% reported as 0%; read-out: Inhibition at 1 μM MC3-R
measurement.kind: inhibition at 1 µM (%)

[2H]N1CCC[C@@H]1C(=O)N[C@@H](Cc1ccccc1)C(=O)N1C[C@H](OCc2ccccc2)C[C@H]1C(=O)NCCCN [Example 44] : 0
[2H]N[C@@H](Cc1cnc[nH]1)C(=O)N[C@@H](Cc1ccccc1)C(=O)N1C[C@H](OCc2ccccc2)C[C@H]1C(N)=O [Example 28, His-D-Phe-Hyp(Bzl)-NH2] : 0

a. NCCCNC(=O)[C@@H]1C[C@@H](OCc2ccccc2)CN1C(=O)[C@@H](Cc1ccc(Cl)cc1)NC(=O)[C@H]1Cc2ccccc2CN1 [Example 22]
b. NCCCNC(=O)[C@@H]1C[C@@H](OCc2ccccc2)CN1C(=O)[C@@H](Cc1ccccc1)NC(=O)[C@@H]1Cc2ccccc2CN1 [Example 23]
Given a and b , report the one with the higher recorded inhibition at 1 µM. Your choice should be expressed through its label.
a
(a: 10%, b: 0%)

----------
- experimental.system: hMC3-R (Homo sapiens)
- Construct: expressed in transfected cells
- test.summary: Competitive inhibition binding assay, 125I-NDP-α-MSH, hMC3-R
- details: 1 μM test compound; 0.4 nM 125I-NDP-α-MSH; hMC3-R membranes; mean of triplicates; results less than 0% reported as 0%; read-out: Inhibition at 1 μM MC3-R
Non-standard residues stand in square brackets, D forms with d. Residues, ends and D or L forms follow the SMILES beside them. *: point of attachment. Hyp = O=C(O)[C@@H]1C[C@@H](O)CN1; Nle = CCCC[C@H](N)C(=O)O; NH(CH2)3NH2 = NCCCN*; Bn = c1ccc(C*)cc1
measurement.kind: inhibition at 1 µM (%)

Worked set:
CCCC[C@H](N)C(=O)N[C@@H](C)C(=O)N[C@@H](Cc1cnc[nH]1)C(=O)N[C@H](Cc1ccccc1)C(=O)N1C[C@H](OCc2ccccc2)C[C@H]1C(=O)NCCCN [Example 10] (H-[Nle]AH[dF][Hyp](Bn)-{NH(CH2)3NH2}) : 6
[2H]N[C@@H](Cc1cnc[nH]1)C(=O)N[C@@H](Cc1ccccc1)C(=O)N1C[C@H](OCc2ccccc2)C[C@H]1C(=O)NCCCCN : 12

I. CCCC[C@H](NC(C)=O)C(=O)N[C@@H](C)C(=O)N[C@@H](Cc1cnc[nH]1)C(=O)N[C@H](Cc1ccccc1)C(=O)N1C[C@H](OCc2ccccc2)C[C@H]1C(=O)NCCCN [Example 9] (Ac-[Nle]AH[dF][Hyp](Bn)-{NH(CH2)3NH2})
II. [2H]N[C@@H](Cc1cnc[nH]1)C(=O)N[C@@H](Cc1ccccc1)C(=O)N1C[C@H](OCc2ccccc2)C[C@H]1C(=O)NCCCCCCN
// compare measured inhibition at 1 µM between I and II ; output the lower one Your choice should be expressed through its label.
II
(II: 0%, I: 13%)
